- systemUnderTest: human CTPS1 (Homo sapiens)
- Construct: purchased Proteros biostructures GmbH
- Sequence (P17812 1-591): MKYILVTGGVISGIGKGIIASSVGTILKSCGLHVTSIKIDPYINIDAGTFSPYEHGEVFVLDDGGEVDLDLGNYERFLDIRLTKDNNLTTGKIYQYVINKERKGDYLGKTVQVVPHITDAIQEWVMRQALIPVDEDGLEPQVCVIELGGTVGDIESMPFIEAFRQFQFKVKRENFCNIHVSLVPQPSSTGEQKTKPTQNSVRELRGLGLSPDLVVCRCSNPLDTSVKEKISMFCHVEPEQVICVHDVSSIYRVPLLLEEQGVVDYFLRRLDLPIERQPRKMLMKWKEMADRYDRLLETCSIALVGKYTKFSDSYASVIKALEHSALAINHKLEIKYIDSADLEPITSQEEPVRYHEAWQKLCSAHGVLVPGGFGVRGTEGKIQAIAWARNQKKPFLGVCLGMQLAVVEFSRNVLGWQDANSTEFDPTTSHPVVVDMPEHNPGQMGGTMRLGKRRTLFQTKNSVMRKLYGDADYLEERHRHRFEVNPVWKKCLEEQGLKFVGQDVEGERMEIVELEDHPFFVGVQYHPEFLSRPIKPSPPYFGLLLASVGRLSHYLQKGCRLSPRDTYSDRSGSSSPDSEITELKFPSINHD
- assayProcedure: Human CTPS1 enzyme inhibition (ADP-Glo Max assay)
- Assay type: biochemical
- measurementConditions: Table 18, additional potency data, 25° C., read-out: CTPS1 (Human CTPS1 Enzyme Inhibition data grouped by potency range)
Entries and their IC50 values follow.

Past entries and their recorded results:
* CCOc1cncc(-c2ccc(NC(=O)C(OC)c3csc(NS(=O)(=O)C4CC4)n3)nc2)n1 (stereo not shown) | < 100 nM
* CCc1cc(-c2cncc(Cl)c2)cc(CC)c1NC(=O)C(C)(C)c1csc(NS(=O)(=O)C2CC2)n1 | 100 to 1000 nM
* COC(C(=O)Nc1ccc(-c2cncc(F)c2)cc1C(F)(F)F)c1csc(NS(=O)(=O)C2CC2)n1 (stereo not shown) | < 100 nM
* CC(C)(O)c1cncc(-c2ccc(NC(=O)C(C)(C)c3csc(NS(=O)(=O)C4CC4)n3)nc2)n1 | 1000 to 10000 nM
* CC(C)(C(=O)Nc1ccc(-c2cncc(C(F)(F)F)n2)cn1)c1csc(NS(=O)(=O)CC2CC2)n1 | 100 to 1000 nM
* COC(C(=O)Nc1ccc(-c2cncc(C(F)(F)F)n2)cc1F)c1csc(NS(=O)(=O)C2CC2)n1 (single isomer, unassigned) [T459] | < 100 nM
* Cc1cc(NC(=O)C(C)(C)c2csc(NS(=O)(=O)C3CC3)n2)c(F)cc1-c1cncc(Cl)c1 | 100 to 1000 nM
* Cc1cc(-c2cncc(Cl)c2)c(F)cc1NC(=O)C(C)(C)c1csc(NS(=O)(=O)C2CC2)n1 | 100 to 1000 nM
* COC(C)(C)c1cncc(-c2ccc(NC(=O)C(C)(C)c3csc(NS(=O)(=O)C4CC4)n3)c(F)c2)n1 | 100 to 1000 nM
* CCC(C(=O)Nc1ccc(-c2cncc(C(C)(C)OC)n2)cc1F)c1csc(NS(=O)(=O)C2CC2)n1 (stereo not shown) | 100 to 1000 nM

The reported value for O=C(Nc1ccc(-c2cncc(Cl)c2)cc1)C1(c2csc(NS(=O)(=O)C3CC3)n2)CC1 in terms of IC50 is < 100 nM

The reported value for Cc1sc(NS(=O)(=O)C2CC2)nc1C(C)(C)C(=O)Nc1ccc(-c2cncc(C(F)(F)F)c2)cc1F in terms of IC50 is 100 to 1000 nM

The reported value for CC(C)c1cc(-c2cncc(C(F)(F)F)n2)ccc1NC(=O)C(C)(C)c1csc(NS(=O)(=O)C2CC2)n1 in terms of IC50 is 100 to 1000 nM

The reported value for CCC(C(=O)Nc1ccc(-c2cncc(C(C)(C)OC)n2)cn1)c1csc(NS(=O)(=O)C2CC2)n1 (stereo not shown) in terms of IC50 is 1000 to 10000 nM

The reported value for CCOc1cncc(-c2ccc(NC(=O)C(CC)c3csc(NS(=O)(=O)C4CC4)n3)c(C#N)c2)n1 (stereo not shown) in terms of IC50 is < 100 nM

The reported value for CC(C)Oc1cncc(-c2ccc(NC(=O)C(C)(C)c3csc(NS(C)(=O)=O)n3)cc2)n1 in terms of IC50 is < 100 nM

====

- systemUnderTest: human CTPS1 (Homo sapiens)
- Construct: purchased Proteros biostructures GmbH
- assayProcedure: Human CTPS1 enzyme inhibition (ADP-Glo Max assay)
- Type: biochemical
- measurementConditions: Table 17, 25° C., read-out: CTPS1 (Human CTPS1 Enzyme Inhibition data grouped by potency range)
- Method: The enzyme inhibitory activities of compounds invented against the target of interest were determined using the ADP-Glo™ Max assay (Promega, UK). […] In all cases, the enzyme converts ATP to ADP and the ADP-Glo™ Max reagent subsequently depletes any remaining endogenous ATP in the reaction system. […] The percentage inhibition produced by each concentration of compound was calculated using the equation shown below: […]
Entries and their IC50 values follow.

* CCC(C(=O)Nc1ccc(-c2cccnc2)cc1)c1csc(NS(=O)(=O)C2CC2)n1 (single isomer, unassigned) [T7] | < 100 nM

The reported value for CCC(C(=O)N(C)c1ccc(-c2cccnc2)cc1)c1csc(NS(=O)(=O)C2CC2)n1 (stereo not shown) [T315] in terms of IC50 is 100 to 1000 nM

The reported value for CCC(C(=O)Nc1ccc(-c2cncc(F)c2)cc1F)c1csc(NS(=O)(=O)C2CC2)n1 (stereo not shown) [T200] in terms of IC50 is < 100 nM

The reported value for CCC(C(=O)Nc1ccc(-c2cncc(OC3CC3)n2)cc1)c1csc(NS(=O)(=O)C2CC2)n1 (stereo not shown) [T77] in terms of IC50 is < 100 nM

====

- systemUnderTest: human CTPS1 (Homo sapiens)
- Construct: purchased Proteros biostructures GmbH
- assayProcedure: Human CTPS1 enzyme inhibition (ADP-Glo Max assay)
- Type: biochemical
- measurementConditions: Table 17, 25° C., read-out: CTPS1 (Human CTPS1 Enzyme Inhibition data grouped by potency range)
Entries and their IC50 values follow.

Past entries and their recorded results:
• CCC(C(=O)Nc1ccc(-c2cncc(C(F)(F)F)n2)cn1)c1csc(NS(=O)(=O)C2CC2)n1 (centres unmarked) = < 0.1 µM
• CCC(C(=O)Nc1ccc(-c2cncc(OC)n2)cc1)c1csc(NS(=O)(=O)C2CC2)n1 (centres unmarked) = < 0.1 µM
• CC(C)(C(=O)Nc1ccc(-c2ncccn2)cc1)c1csc(NS(=O)(=O)C2CC2)n1 = 1 to 10 µM
• CCC(C(=O)Nc1ccc(-c2cncc(OC(F)F)c2)cc1F)c1csc(NS(=O)(=O)C2CC2)n1 (centres unmarked) = < 0.1 µM
• CCC(C(=O)Nc1ccc(-c2cccnc2)cc1)c1csc(NS(=O)(=O)C2CC2)n1 (racemic) [T5] = < 0.1 µM
• CCC(C(=O)Nc1ccc(-c2cncc(F)c2)cc1)c1csc(NS(=O)(=O)C2CC2)n1 (single isomer, unassigned) [T72] = < 0.1 µM
• CCC(C(=O)Nc1ccc(-c2cncc(OC(F)F)c2)cn1)c1csc(NS(=O)(=O)C2CC2)n1 (centres unmarked) = < 0.1 µM
• CN(C)C(=O)c1cncc(-c2ccc(NC(=O)C(C)(C)c3csc(NS(=O)(=O)C4CC4)n3)cc2)n1 = 0.1 to 1 µM
• CC(C)C(C(=O)Nc1ccc(-c2cncnc2)cc1)c1csc(NS(=O)(=O)C2CC2)n1 (centres unmarked) = 0.1 to 1 µM
• CCC(C(=O)Nc1ccc(-c2cccnc2)cc1F)c1csc(NS(=O)(=O)C2CC2)n1 (centres unmarked) = < 0.1 µM

The reported value for CC(C)(C(=O)Nc1ccc(-c2cnccn2)c(F)c1)c1csc(NS(=O)(=O)C2CC2)n1 in terms of IC50 is 0.1 to 1 µM

The reported value for CC(C)(C(=O)Nc1ccc(-c2cncnc2)cc1)c1csc(NS(=O)(=O)C2CC2)n1 in terms of IC50 is < 0.1 µM

The reported value for O=C(Cc1csc(NS(=O)(=O)C2CC2)n1)Nc1ccc(-c2cccnc2)cc1Cl in terms of IC50 is 0.1 to 1 µM

The reported value for CCC(CC)(C(=O)Nc1ccc(-c2cncc(Cl)c2)cc1)c1csc(NS(=O)(=O)C2CC2)n1 in terms of IC50 is < 0.1 µM

The reported value for CCC(C(=O)Nc1ccc(-c2cncc(C#N)n2)cc1)c1csc(NS(=O)(=O)C2CC2)n1 (centres unmarked) in terms of IC50 is 0.1 to 1 µM

The reported value for CCC(C(=O)Nc1ccc(-c2cncc(OCC(F)(F)F)n2)cc1F)c1csc(NS(=O)(=O)C2CC2)n1 (centres unmarked) in terms of IC50 is < 0.1 µM

The reported value for CCOc1cncc(-c2ccc(NC(=O)C(CC)c3csc(NS(=O)(=O)C4CC4)n3)cc2)c1 (centres unmarked) in terms of IC50 is < 0.1 µM
